assay-name: KLF5 expression inhibitors, primary screen, DLD-1 cells, luminescence (AID 1700);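 note: 0% = DMSO wells and 100% = LY294002 at 200 µM; higher means less KLF5 promoter-driven luciferase light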
experimental-conditions: DLD-1 KLF5 promoter-luciferase reporter, at 5 µM, stronger effect = higher value
The whole screen tested about 290,000 compounds, of which about 670 (0.23%) were called active. Shown is part of a subset that was picked to be rich in actives.
readout-type: inhibition (%)

1) Cc1nn2c(c1-c1ccccc1)N=C(c1ccco1)CC2c1ccccc1 (stereo unspecified) :: -26.4
2) CCNC(=O)CCc1nc(-c2ccc(C)cc2)no1 :: -43.2
3) O=C1CSc2ccc(S(=O)(=O)NCc3ccccc3)cc2N1 :: 11.2
4) CC1CCCN(CC(=O)Nc2cc(Cl)ccc2Oc2ccccc2)C1 (stereo unspecified) :: -4.36
5) C=CCc1ccccc1OCC(=O)N/N=C/c1ccccc1OCC :: -10.7
6) CCNC(=O)CCc1nc(-c2ccc(C(C)(C)C)cc2)no1 :: 61.9

---

Property: inhibition; scope: individual compounds
assay-name: KLF5 expression inhibitors, primary screen, DLD-1 cells, luminescence (AID 1700);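 note: 0% = DMSO wells and 100% = LY294002 at 200 µM; higher means less KLF5 promoter-driven luciferase light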
experimental-conditions: DLD-1 KLF5 promoter-luciferase reporter, at 5 µM, stronger effect = higher value
The whole screen tested about 290,000 compounds, of which about 670 (0.23%) were called active. The list comes from a sample in which actives are over-represented; it also holds close analogues and randomly drawn compounds.
readout-type: inhibition (%)

1) CC/C(=N\NC(=O)c1c(C)nc2ccccn12)c1ccc(Cl)cc1 :: -19.6
2) Cc1ccc2nc(-c3ccc(Br)cc3)cn2c1 :: 48.8
3) CCc1ccc(/C=N/NC(=O)c2nnn(-c3nonc3N)c2CN2CCc3ccccc32)cc1 :: 9.12
4) COc1ccc(N2CCN(S(=O)(=O)CCNC(=O)C34CC5CC(CC(C5)C3)C4)CC2)cc1 :: -7.42
5) Cc1ccc(/C=N/NC(=O)c2cc3ccccc3cc2O)o1 :: -47.3
6) Cc1ccc(-c2cn3cc([N+](=O)[O-])ccc3n2)cc1 :: -2.85
7) CCCCCCn1c(CN2CCCCC2)nc2c1c(=O)n(C)c(=O)n2C :: 0.95
8) CC(C)CNS(=O)(=O)c1ccc(C(=O)Nc2ccc3c(c2)OCO3)cc1 :: -18.9
9) CCN1C(=O)/C(=C2/Sc3ccc(OC)cc3N2C)SC1=Nc1ccc(C)cc1 :: -15.8
10) O=C(CCNC(=O)C1CCN(S(=O)(=O)c2ccccc2)CC1)NC1CC1 :: -34.7
11) O=C(CN1CCC(O)(c2cccc(C(F)(F)F)c2)CC1)NCCc1ccccc1 :: -13
12) CC1CCC(NS(=O)(=O)c2ccc3c(c2)CC(=O)N3)CC1 (centres undefined) :: 10.7
13) Cn1nccc1C(=O)NC1CCCc2c1cnn2-c1ccc(F)cc1F (centres undefined) :: 64.7
14) Cc1ccc(-c2cn3cc(C)ccc3n2)cc1 :: 81

---

assay-name: KLF5 expression inhibitors, primary screen, DLD-1 cells, luminescence (AID 1700);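 note: 0% = DMSO wells and 100% = LY294002 at 200 µM; higher means less KLF5 promoter-driven luciferase light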
experimental-conditions: DLD-1 KLF5 promoter-luciferase reporter, at 5 µM
The whole screen tested about 290,000 compounds, of which about 670 (0.23%) were called active.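 The calls were made as follows: active = inhibition above a per-plate limit of that plate's mean compound inhibition plus 3 SD (cut at about 60% in these data); inactive = the rest.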 This excerpt belongs to a sample that is enriched for actives.
Labels: 1 for active, 0 for inactive

1) CN(NC(=O)c1ccccc1)c1nc2ccccc2nc1C(F)(F)F :: 0
2) N#CCC(=O)NC1CCC(CC2CCC(NC(=O)CC#N)CC2)CC1 (centres undefined) :: 0
3) COc1ccc(-c2cc(=O)oc3cc(OCC(=O)N(C)C4CCS(=O)(=O)C4)ccc23)cc1 (centres undefined) :: 0
4) COc1ccc(S(=O)(=O)n2nc(C)c(S(=O)(=O)N3CCOCC3)c2C)cc1 :: 0
5) O=C(Nc1ccccc1C(=O)NCC1CCCO1)c1ccccc1F (centres undefined) :: 0
6) COc1ccccc1CNS(=O)(=O)c1ccc2c(c1)NC(=O)CS2 :: 0
7) CCn1c(SCC(=O)Nc2nccs2)nnc1-c1ccco1 :: 0
8) Cc1cccc(C(=O)NCCCN(C)CCCNC(=O)c2cccc(C)c2)c1 :: 0
9) Cc1cc(=O)n2nc(N3CCC(C(=O)Nc4c(F)c(F)c(F)c(F)c4F)CC3)sc2n1 :: 0
10) Cc1cccc(CN2CCC(n3nccc3NC(=O)c3ccccc3C)CC2)n1 :: 0
11) CCCCC[C@H]1CN(C2CCCCC2)C(=O)[C@@H]1CC(=O)NCc1ccc(OC)cc1 :: 0
12) C[C@@H]1C[C@@H]2O[C@H]2/C=C\C=C\C(=O)Cc2c(Cl)c(O)cc(O)c2C(=O)O1 :: 1
13) CC(=O)c1ccc(Oc2cc(C)nc(-n3nc(C)cc3C)n2)cc1 :: 1
14) Cc1cccc(NC(=O)C2CCN(C(=O)NC3CCCCC3)CC2)c1 :: 0
15) O=C(N/N=C/c1sc(N2CCCCC2)nc1-c1cccs1)c1cccnc1 :: 0
16) NS(=O)(=O)c1ccc(CCNS(=O)(=O)c2cccc3cccnc23)cc1 :: 0
17) Cc1cccc(OCC(=O)Nc2ccc(NC(=O)c3ccco3)c(C)c2)c1 :: 0
18) CS(=O)(=O)c1ccc2nnn(OCC(=O)Nc3cccc(C#N)c3)c2c1 :: 0
19) CCOC(=O)c1sc(NC(=O)c2sc(C)nc2C)nc1C :: 1
20) COc1ccccc1/C=N/N1CCN(Cc2ccccc2Cl)CC1 :: 0
21) CC(C)C(C)NC(=O)COc1nc2ccccc2nc1N(C)C1CCCCC1 (centres undefined) :: 0
22) CN(c1ccccc1)S(=O)(=O)c1ccc2[nH]c(=O)[nH]c2c1 :: 0
23) COc1ccc(S(=O)(=O)N(CC(=O)N/N=C/c2ccc(C(=O)O)cc2)Cc2ccccc2)cc1OC :: 0
24) CCOC(=O)c1cnc(-n2nc(C)cc2C)nc1Nc1cccc(C(C)=O)c1 :: 0
25) Cc1ccc(S(=O)(=O)N(Cc2ccccc2)c2ccccn2)cc1[N+](=O)[O-] :: 0
26) CCn1c(SCC(=O)NC2CC2)nnc1-c1ccncc1 :: 0
27) Cc1ccc(CNS(=O)(=O)c2ccc3c(c2)N(C)CCO3)cc1 :: 0
28) CCOc1ccccc1CN1CCN(C2CCC2)CC1CCO (centres undefined) :: 0
29) O=C(N[C@@H](Cc1ccccc1)C(=O)OCc1ccccc1)c1nc[nH]c1C(=O)N[C@@H](Cc1ccccc1)C(=O)OCc1ccccc1 :: 0
